# Experiment: Microsomal stability
# Format: in vitro ADME, human
# Cond: text states, human liver microsomes
Assay endpoint: unmetabolised in human liver microsomes (%)

Reference set (3 entries):
unmetabolised in human liver microsomes for Cc1c(Cc2cccnc2S(=O)(=O)c2ccccc2)c2cc(F)ccc2n1CC(=O)O is 96

// sample Cc1c(Cc2ncccc2S(=O)(=O)c2ccccc2)c2cc(F)ccc2n1CC(=O)O , its unmetabolised in human liver microsomes was 90

Summary for this molecule, Cc1c(Cc2ccncc2S(=O)(=O)c2ccccc2)c2cc(F)ccc2n1CC(=O)O : unmetabolised in human liver microsomes is 69

a = Cc1c(Cc2cccn2S(=O)(=O)c2ccccc2)c2cc(F)ccc2n1CC(=O)O
b = Cc1c(Cc2cccnc2S(=O)(=O)c2ccc(F)cc2)c2cc(F)ccc2n1CC(=O)O
Qu. Response body: label of entry with the larger unmetabolised in human liver microsomes; valid values a , b . API: response body contains the label of the selected item.
Ans. b

====

# Experiment: Microsomal stability
# Assay type: in vitro ADME, human
# Cond: 1 x 10^-6 M test compound, human liver microsomes 0.3 mg/ml, mean of two experiments
Assay endpoint: Mean Parent remaining (%)

Item: Cc1c(Cc2ncccc2S(=O)(=O)c2ccccc2)c2cc(F)ccc2n1CC(=O)O | Mean Parent remaining (%): 90

response.value for Cc1c(Cc2cccnc2S(=O)(=O)c2ccccc2)c2cc(F)ccc2n1CC(=O)O (field: Mean Parent remaining (%)) = 96

# Mean Parent remaining (%) (compound: Cc1c(Cc2cccnc2S(=O)(=O)c2ccc(F)cc2)c2cc(F)ccc2n1CC(=O)O ) is 98
